molecular target: Prostate specific antigen (PSA), purified from human seminal fluid (human, UniProt P07288 25-261); assay: cell-based or functional assay
Bridge positions count the residues as written; N and C are the ends. Ends that are not written are not given here.
MEASURED_ATTRIBUTE: PSA-peptide/PSA ratio
Give your result as the value with the unit written after it.

CVAACIEHHCWTC (disulfide (positions not given here)) [C-4-5 (C-4 A4)]: 1 ratio
CVFTSNAAYC (disulfide 1-10 (inferred)) [A-1-6 (A1 N6Y7Y9)]: 1 ratio

Report PSA-peptide/PSA ratio for CVFTSDYAFC (disulfide 1-10) [chemically synthesized peptide A-1 (A-1-1, A-1 parent)] please.
2.3 ratio
